Value source: PubChem BioAssay

assay: binders from COS7 lysate, DM2A8 probe, primary screen, torsin A project, cell lysate, small-molecule microarray, fluorescence 635/667 (AID 1065); conditions: higher = more signal, COS7 lysate expressing mutant human TOR1A
Catalogue of composite z-score values
Could you respond with only the numeric value?

A selection of reference data follows.
O=C(NCC(O)CO)[C@@]1(Cc2ccccc2)COC(c2ccc(OCCCO)cc2)=N1 (stereo partly drawn)	-0.0995
COc1ccc(C#Cc2ccc3c(c2)[C@]2(C(=O)N3)[C@H](c3ccc(OCCO)cc3)N3[C@H](c4ccccc4)[C@H](c4ccccc4)OC(=O)[C@H]3[C@@H]2C(=O)Nc2nc3ccccc3s2)cc1	0.664

stdin: Fill in: composite z-score of COC(=O)[C@@]1(Cc2ccccc2)[C@H]2c3cc(C(=O)N(C)C)n(Cc4cc(F)c(F)c(F)c4)c3C[C@H]2CN1C(=O)c1ccccc1 is ___
stdout: -0.166

###

Some molecules, each annotated with its measured composite z-score.
system: Lefty1; experiment: Lefty1 protein binding to printed compounds – biochemical, small-molecule microarray, 635/667 nm fluorescence, primary screen (AID 1139); details: fluorescence 635/667, higher = more signal
Answer with a number only.

stdin: Record request: composite z-score value, item C=CCC(OC(C)=O)[C@@H]1[C@@H](N(Cc2cc3ccccc3o2)C(=O)c2cccc3ccccc23)c2cc(OCCCO)ccc2N1C(=O)Cc1ccc2ccccc2c1 (stereo partly specified)
stdout: -0.0817

stdin: Would you kindly share the measured composite z-score for O=C1O[C@@H](c2ccccc2)[C@@H](c2ccccc2)N2[C@@H](c3ccc(O)cc3)[C@]3(C(=O)Nc4ccc(C#CCCO)cc43)[C@@H](C(=O)O)[C@H]12 ?
stdout: -0.22

stdin: Requested field: composite z-score. Item: O=S(=O)(NCCCO)c1ccc(Br)cc1
stdout: -0.0569

stdin: Using the record for COc1ccccc1CN1C(=O)c2ccccc2[C@](Cc2ccccc2I)(C(=O)NCc2ccccc2)[C@@H]1c1ccc(CO)cc1 , report its composite z-score.
stdout: -0.88

stdin: Recorded composite z-score for OCCCc1cc[n+](Cc2cccc(OC(F)(F)F)c2)cc1 , please?
stdout: 0.714

stdin: Name the reported composite z-score value associated with the molecule Cc1ccc(C(C)CC(O)C2C=CC3C(=O)NC(=O)C3N2Nc2ccccn2)o1 (stereo unspecified)
stdout: 0.643

stdin: // returns reported composite z-score for input C[N+](C)(C)CCCC[C@@H]1NC(=O)[C@H]2C[C@@H](C(=O)O)[C@@H](c3cccc(OCCO)c3)N2C1=O
stdout: 0.804

###

test: JC-1 mitochondrial signal, unstimulated HepG2 cells – cell-based, JC-1 fluorescence, 24 h, 100 nL compound, profiling panel (AID 1167); settings: HepG2 mitochondrial potential, higher = more signal; further: test concentration not given here
Think of -0.2 as a floor: if z-score stands on it or above, it is y; beneath it, n.

Solved cases below.
C[C@H]1C2[C@H](Cc3ccccc3)NC(=O)[C@]23C(=O)N[C@H](Cc2ccccc2)C(=O)N[C@H](Cc2ccccc2)C(=O)NC/C=C/CCC/C=C/C3[C@@H]2O[C@]12C (stereo partly drawn)	y
COC(=O)[C@@]1(Cc2ccc(OC)cc2)[C@H]2c3cc(C(=O)N(C)C)n(Cc4ccc(OC)c(OC)c4)c3C[C@H]2CN1C(=O)c1ccccc1	y
C#C[C@H](O[Si](C#CCCCCCC)(C(C)C)C(C)C)c1ccccc1	y
COCCCNC(=O)[C@@]1(C)c2ccccc2C(=O)N(Cc2ccccc2)[C@H]1c1ccc(CO)cc1	y
CN(C)CCCCNC(=O)[C@@H]1C[C@@H]2C(=O)N[C@@H](CCCCN)C(=O)N2[C@@H]1c1cccc(OCCO)c1	n
O=C1O[C@H](c2ccccc2)[C@H](c2ccccc2)N2[C@H]1[C@@H](C(=O)Nc1nc3ccccc3s1)[C@]1(C(=O)Nc3ccc(C#CC4=CCCCC4)cc31)[C@H]2c1ccc(OCCO)cc1	n
C=CCNC(=O)[C@H]1[C@@H]2C(=O)O[C@@H](c3ccccc3)[C@@H](c3ccccc3)N2[C@@H](c2ccc(O)cc2)[C@]12C(=O)Nc1ccc(C#Cc3ccc(OC)cc3)cc12	n
C=CCNC(=O)[C@H]1[C@@H]2C(=O)O[C@@H](c3ccccc3)[C@@H](c3ccccc3)N2[C@@H](c2ccc(OCCO)cc2)[C@]12C(=O)N(C(=O)OCCOC)c1ccc(C#CC3(O)CCCCCC3)cc12	n

Shifting focus to the molecule that follows.
stdin: Is z-score at least -0.2? Consider CC(C)OC(=O)C1=CCC(c2cccc(Cl)c2)O1 (stereo not drawn)
stdout: n

###

assay: JC-1 mitochondrial signal, unstimulated myeloma cells – cell-based, JC-1 fluorescence, RPMI8226, 24 h, 100 nL compound, profiling panel (AID 1169); conditions: JC-1 mitochondrial potential fluorescence, higher = more signal; further: test concentration not given here
Lab note: anything with z-score at or over -0.08 counts as met; the rest go in not met.

Solved entries:
COC(=O)[C@@]1(Cc2ccc(OC)cc2)[C@H]2c3cc(C(=O)N4CCCC4)n(CCc4ccccn4)c3C[C@H]2CN1C(=O)c1ccccc1	not met
C=CCC(OC(C)=O)[C@@H]1[C@@H](N(Cc2ccc(-c3ccccc3)cc2)C(=O)c2ccc(C)cc2)c2cc(OCCCO)ccc2N1C(=O)c1ccc2ccccc2n1 (stereo partly drawn)	met
NC(=O)[C@@]1(CCS(=O)(=O)c2ccccc2)N=C(c2ccc(OCCCO)cc2)O[C@H]1c1ccccc1	met
CCN(CC)c1ccc(N2CC=CC34O[C@@H]5/C=C\CCC(C)OC(=O)C5[C@H]3C(=O)N(CCCCCCO)[C@@H]4C2=O)cc1 (stereo partly drawn)	met
CN(C)CCCCCCNC(=O)[C@@H]1C[C@@H]2C(=O)N[C@@H](Cc3ccccc3)C(=O)N2[C@@H]1c1cccc(OCCO)c1	met
CCCNC(=O)[C@@]1(C)c2ccccc2C(=O)N(Cc2cc(F)cc(C(F)(F)F)c2)[C@H]1c1ccc(CO)cc1	met

Proceed to the following item.
stdin: Is it the case that CC(C)(C)OC(=O)CC[C@@]1(C(N)=O)N=C(c2ccc(OCCCO)cc2)O[C@@H]1c1ccccc1N=[N+]=[N-] has z-score reaching or exceeding -0.08?
stdout: not met

###

biological target: Albumin (Bos taurus); experiment: compounds binding labelled BSA control protein – biochemical, small-molecule microarray, Alexa647 label, 635/667 nm fluorescence, artefact control for SMM control protein annotation, profiling panel (AID 1118); conditions: BSA-A647 binding, fluorescence 635 nm, higher = more signal;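 further: score merges 667 nm emission intensity and signal-to-noise per printed compound spot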
Catalogue of composite z-score values
Reply with just the number.

The examples below pair each entry with its known result.
O=C1O[C@H](c2ccccc2)[C@H](c2ccccc2)N2[C@H]1[C@@H](C(=O)Nc1nc3ccccc3s1)[C@]1(C(=O)Nc3ccc(C#CC4=CCCCC4)cc31)[C@H]2c1ccc(OCCO)cc1	0.897
O=C1OCC=C[C@H]2OC34C=CCN(c5ccc6ccccc6c5)C(=O)[C@H]3N(CCO)C(=O)[C@@H]4[C@@H]12 (some centres not stated)	-0.855
C=C[C@@H](C)[C@@H](OC(=O)Nc1ccc(OC)cc1)c1ccc(O)c2ccccc12	0.199
CN1C(=O)C2C(C1=O)C1C=C(c3ccc(CO)cc3)C2C(C2CC2)N1Cc1sc2ccccc2c1Cl (configuration not stated)	0.947
[N-]=[N+]=NCc1ccccc1[C@@H]1OC(c2ccc(OCCCO)cc2)=N[C@]1(Cc1ccccc1N=[N+]=[N-])C(N)=O	0.825
[N-]=[N+]=NCc1ccccc1C[C@]1(C(=O)NCc2ccccc2)COC(c2ccc(OCCCO)cc2)=N1	0.632

stdin: // lookup composite z-score | system=Albumin (Bos taurus) | key= CN1C(=O)C2C=CC(C(O)C(C)(C)C)N(Nc3ccccc3)C2C1=O (configuration not stated)
stdout: 0.494

stdin: State its composite z-score on Albumin (Bos taurus): [N-]=[N+]=NCc1ccccc1C[C@]1(C(=O)N2CCOCC2)N=C(c2ccc(OCCCO)cc2)O[C@H]1c1ccccc1
stdout: 0.905

stdin: State its composite z-score on Albumin (Bos taurus): C=C(C(=O)CC[C@@H](OC(C)=O)c1ccc(OCCO)cc1)C(C)C
stdout: 0.773

stdin: Quick check: composite z-score on Albumin (Bos taurus), item O=C1O[C@H](c2ccccc2)[C@H](c2ccccc2)N2[C@H]1[C@@H](C(=O)N1CCCCCCC1)[C@]1(C(=O)Nc3ccc(C#CC4=CCCCC4)cc31)[C@H]2c1ccc(O)cc1 ?
stdout: 0.599

stdin: Recorded composite z-score for O=C1C2C=CC(C(O)c3ccc(Br)cc3)N(n3cnnc3)C2C(=O)N1Cc1ccccc1 (configuration not stated) with Albumin (Bos taurus), please?
stdout: 0.807

###

target: Torsin-1A-interacting protein 1 (Homo sapiens) (UniProt Q5JTV8); test: compound microarray binding of lysate hLAP1 – cell lysate, small-molecule microarray, COS7 lysate, 635/667 nm fluorescence, primary screen (AID 1116); conditions: 635 nm fluorescence, higher = more signal
Sequence (Q5JTV8 whole entry, looked up): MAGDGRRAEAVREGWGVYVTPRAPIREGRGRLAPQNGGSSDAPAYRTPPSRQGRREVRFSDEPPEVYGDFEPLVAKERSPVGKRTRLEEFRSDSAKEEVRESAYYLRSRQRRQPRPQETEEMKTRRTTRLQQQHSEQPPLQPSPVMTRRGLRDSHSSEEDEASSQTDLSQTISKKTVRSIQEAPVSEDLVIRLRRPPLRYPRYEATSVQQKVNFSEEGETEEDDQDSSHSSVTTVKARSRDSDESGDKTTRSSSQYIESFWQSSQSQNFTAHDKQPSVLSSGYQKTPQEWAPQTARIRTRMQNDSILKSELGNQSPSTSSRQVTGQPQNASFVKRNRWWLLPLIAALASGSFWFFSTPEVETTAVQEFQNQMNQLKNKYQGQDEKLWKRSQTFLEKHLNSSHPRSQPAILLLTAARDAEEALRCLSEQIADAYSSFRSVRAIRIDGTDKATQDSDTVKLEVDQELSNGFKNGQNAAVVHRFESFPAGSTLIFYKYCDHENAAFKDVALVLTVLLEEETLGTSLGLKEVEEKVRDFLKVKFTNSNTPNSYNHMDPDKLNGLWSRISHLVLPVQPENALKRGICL
OUTCOME MEASURE: composite z-score

O=[N+]([O-])c1ccc(C[n+]2ccc(CCCO)cc2)o1	0.261
CCOC(=O)C1=C[C@@H](C(C)(C)C)N(S(=O)(=O)c2ccc(C)cc2)[C@H]1c1ccc(Cl)c(Cl)c1	0.735
CCN(CC)c1ccc(N2CC=CC34O[C@@H]5C=CCCOC(=O)C5[C@H]3C(=O)N(CCCO)[C@@H]4C2=O)cc1 (some centres undefined)	-0.273

Next item in the queue.
stdin: Fill in the blank: the reported composite z-score of O=C(N1CCCCC1)[C@]1(CCS(=O)(=O)c2ccccc2)N=C(c2ccc(OCCCO)cc2)O[C@@H]1c1ccccc1 is ____.
stdout: 0.917
